System: Fibroblast
Measurement description: Multiplex assay against human fibroblast
Format: toxicity, cell-based
Study conditions: 48 h, 1 µM, compound concentration 1 uM, replicate 1
Outcome measure: Population Mitotic Cells (%)
Express it in %; write the number only.

Examples with their reported Population Mitotic Cells (%) follow.
Compound | Population Mitotic Cells (%)
C=CC(=O)Nc1cc(-n2c(=O)ccc3cnc4ccc(-c5ccc(NS(C)(=O)=O)cc5)cc4c32)ccc1C | 38
CC(C)c1cc(Nc2nc(N3CCC[C@H](N)C3)ncc2C(N)=O)cc(C(C)C)n1 | 30
Cc1ccc(S(=O)(=O)NC2c3ccccc3Oc3ccccc32)cc1 | 57
CC(Cc1ccc(O)c(O)c1)C(C)Cc1ccc(O)c(O)c1 (stereo not given) [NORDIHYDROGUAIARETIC ACID] | 40

With those in mind, consider the next compound.
Task: Record `N#Cc1cccc(C(=O)Nc2cc(-c3ccccc3)nn2-c2ccccc2)c1` : what is its Population Mitotic Cells (%) with Fibroblast?
Output: 42

---

Tested on: HEK-293T
Measurement description: Multiplex assay against HEK293T
Assay type: toxicity, cell-based
Study conditions: human, 48 h, 1 µM, compound concentration 1 uM, replicate 1
Where Population Fragmented Nuclei (%) equals or exceeds 20%, the correct label is true; where it does not, the label is false.

Molecule | Class assignment
N#CCNC(=O)c1ccc(-c2ccnc(Nc3ccc(N4CCOCC4)cc3)n2)cc1 | false
CCCCCNC(=N)N/N=C/c1c[nH]c2ccc(OC)cc12.O=C(O)/C=C\C(=O)O [TEGASEROD MALEATE] | false
Oc1cccc(-c2nc(N3CCOCC3)c3oc4ncccc4c3n2)c1 | true

Task: Decide: Population Fragmented Nuclei (%) of `CC(C)c1cc(Nc2nc(N3CCC[C@H](N)C3)ncc2C(N)=O)cc(C(C)C)n1` >= 20%?
Output: false

Task: Decide: Population Fragmented Nuclei (%) of `Cc1ccc(S(=O)(=O)NC2c3ccccc3Oc3ccccc32)cc1` >= 20%?
Output: false

Task: Decide: Population Fragmented Nuclei (%) of `N#Cc1cccc(C(=O)Nc2cc(-c3ccccc3)nn2-c2ccccc2)c1` >= 20%?
Output: false

Task: Decide: Population Fragmented Nuclei (%) of CC(Cc1ccc(O)c(O)c1)C(C)Cc1ccc(O)c(O)c1 (centres undefined) [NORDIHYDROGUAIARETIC ACID] >= 20%?
Output: false

Task: Decide: Population Fragmented Nuclei (%) of `C[C@@H](Oc1cc(-n2cnc3ccc(CN4CCN(C)CC4)cc32)sc1C(N)=O)c1ccccc1C(F)(F)F` >= 20%?
Output: true

---

System: HEK-293T
Measurement description: Incucyte cell viability with HEK293T; note: filed as whole numbers so only -1 and 0 and 1 occur
Type: toxicity, cell-based
Study conditions: human, 18 h, 10 µM, compound concentration 10 uM, replicate number 1, timepoint 18 hours
Outcome measure: Growth Rate
Respond numerically, and do not add a unit to the figure.

Examples with their reported Growth Rate follow.
Compound | Growth Rate
COc1cccc(CNC(=O)c2nc3scc(COCc4ccc(C(=O)O)cc4)c3c(=O)[nH]2)c1 [T-26c] | 1
Cc1ccc(S(=O)(=O)NC2c3ccccc3Oc3ccccc32)cc1 | 1

Task: Need Growth Rate of CN(CCOc1ccc(CC2SC(=O)NC2=O)cc1)c1ccccn1 (stereo not drawn) , thanks.
Output: 1

Task: Need Growth Rate of `C/C(=C/C=C/C(C)=C/C(=O)O)c1cc(C(C)(C)C)cc(C(C)(C)C)c1OCC(F)F` , thanks.
Output: 0

Task: Need Growth Rate of `CCCc1cc(C)[nH]c(=O)c1CNC(=O)c1cc(-c2ccc(N3CCN(C(C)C)CC3)nc2)cc2c1cnn2C(C)C` , thanks.
Output: 0

Task: Need Growth Rate of `COc1ccccc1-c1cc(Nc2cccc(CS(N)(=O)=O)c2)ncn1` , thanks.
Output: 0

Task: Need Growth Rate of `N#CC1(c2ccccn2)CCN(Cc2cc(C(=O)O)c(=O)n3ccccc23)CC1` , thanks.
Output: 1

Task: Need Growth Rate of `C/C(=N\NC(=O)[C@@H]1C(=O)NC[C@H]1c1ccccc1)c1cccc(Br)c1` , thanks.
Output: 0

Task: Need Growth Rate of CN1C(=O)[C@@H](NC(=O)c2cc3ccccc3[nH]2)N=C(c2ccccc2)c2ccccc21 [DEVAZEPIDE] , thanks.
Output: 0

Task: Need Growth Rate of `CC(C)c1cc(Nc2nc(N3CCC[C@H](N)C3)ncc2C(N)=O)cc(C(C)C)n1` , thanks.
Output: 0

Task: Need Growth Rate of `O=C(NNS(=O)(=O)c1ccccc1)c1cc(-c2ccnnc2)ccc1F` , thanks.
Output: 1

Task: Need Growth Rate of CCC(=O)NC1Cc2ccccc2C(c2ccccc2)C1 (stereo not drawn) , thanks.
Output: 0

Task: Need Growth Rate of COc1cccc(-c2c(C)n(Cc3c(F)cccc3C(F)(F)F)c(=O)n(C[C@H](NCCCC(=O)[O-])c3ccccc3)c2=O)c1F.[Na+] [ELAGOLIX SODIUM] , thanks.
Output: 1

Task: Need Growth Rate of `Cc1c(P(=S)(c2ccccc2)c2ccccc2)n2ccccc2[n+]1C/C=C/c1ccccc1.[Br-]` , thanks.
Output: 0

Task: Need Growth Rate of `CC[C@@H]1C(=O)N(C)c2cnc(Nc3ccc(C(=O)NC4CCN(C)CC4)cc3OC)nc2N1C1CCCC1` , thanks.
Output: 0

Task: Need Growth Rate of `Cc1c(Nc2ccc(S(=O)(=O)N3CCN(C)CC3)cc2F)nc2ccc(Nc3cnn(C4CC4)c3)cn2c1=O` , thanks.
Output: 0

Task: Need Growth Rate of `CC(C)[C@H](CO)Nc1nc(Nc2cccc(Cl)c2)c2ncn(C(C)C)c2n1` , thanks.
Output: 0

Task: Need Growth Rate of `CC[C@H](Nc1ncnc2[nH]cnc12)c1nc2cccc(F)c2c(=O)n1-c1ccccc1` , thanks.
Output: 0

---

System: Fibroblast
Measurement description: Multiplex assay against human fibroblast
Assay type: toxicity, cell-based
Study conditions: 24 h, 10 µM, compound concentration 10 uM, replicate 2
// values below are reported Population Membrane Permeable-Phenotype (%)
Express it in %; write the number only.

Molecule | Measurement units | Reported measurement
CN1C(=O)[C@@H](NC(=O)c2cc3ccccc3[nH]2)N=C(c2ccccc2)c2ccccc21 [DEVAZEPIDE] | % | 19

Task: Need Population Membrane Permeable-Phenotype (%) of `c1ccc(-c2oc3ncnc(NC[C@@H]4CCCO4)c3c2-c2ccccc2)cc1` , thanks.
Output: 21

Task: Need Population Membrane Permeable-Phenotype (%) of CC(Cc1ccc(O)c(O)c1)C(C)Cc1ccc(O)c(O)c1 (centres undefined) [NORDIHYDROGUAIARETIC ACID] , thanks.
Output: 1

Task: Need Population Membrane Permeable-Phenotype (%) of `CCCCN(CC)c1nc(C)nc2c1c(C)cn2-c1c(C)cc(C)cc1C.Cl` , thanks.
Output: 3

Task: Need Population Membrane Permeable-Phenotype (%) of `N#Cc1cccc(C(=O)Nc2cc(-c3ccccc3)nn2-c2ccccc2)c1` , thanks.
Output: 30

Task: Need Population Membrane Permeable-Phenotype (%) of `C=CC(=O)Nc1cc(-n2c(=O)ccc3cnc4ccc(-c5ccc(NS(C)(=O)=O)cc5)cc4c32)ccc1C` , thanks.
Output: 22

Task: Need Population Membrane Permeable-Phenotype (%) of `C[C@@H](Oc1cc(-n2cnc3ccc(CN4CCN(C)CC4)cc32)sc1C(N)=O)c1ccccc1C(F)(F)F` , thanks.
Output: 90

Task: Need Population Membrane Permeable-Phenotype (%) of `CC(C)[C@H](CO)Nc1nc(Nc2cccc(Cl)c2)c2ncn(C(C)C)c2n1` , thanks.
Output: 50

Task: Need Population Membrane Permeable-Phenotype (%) of `N#CCNC(=O)c1ccc(-c2ccnc(Nc3ccc(N4CCOCC4)cc3)n2)cc1` , thanks.
Output: 28

---

// values below are reported Population Mitotic Cells (%)
Test system: U2OS
Measurement description: Multiplex assay against U2OS
Assay type: toxicity, cell-based
Study conditions: human, 12 h, 1 µM, compound concentration 1 uM, replicate 1
Express it in %; write the number only.

Examples with their reported Population Mitotic Cells (%) follow.
Compound | Measurement units | Reported measurement
CC[C@@H]1C(=O)N(C)c2cnc(Nc3ccc(C(=O)NC4CCN(C)CC4)cc3OC)nc2N1C1CCCC1 [BI-2536] | % | 0
CC(C)c1cc(Nc2nc(N3CCC[C@H](N)C3)ncc2C(N)=O)cc(C(C)C)n1 | % | 48

Task: Need Population Mitotic Cells (%) of C[C@@H](Oc1cc(-n2cnc3ccc(CN4CCN(C)CC4)cc32)sc1C(N)=O)c1ccccc1C(F)(F)F [GSK-461364] , thanks.
Output: 45

---

Tested on: U2OS
Measurement description: Multiplex assay against U2OS
Format: toxicity, cell-based
Study conditions: human, 48 h, 1 µM, compound concentration 1 uM, replicate 1
Where Population Apoptotic (%) equals or exceeds 30%, the correct label is rule met; where it does not, the label is rule not met.

As a guide, the following entries are already answered.
Molecule | Class assignment
CN(c1cc(C(F)(F)F)nc(OCCC(=O)O)n1)c1cccc2c1CCC2 | rule met
CC(/C=C1\SC(=S)N(CCCC(=O)Nc2ccc(C(=O)O)c(O)c2)C1=O)=C\c1ccccc1 | rule met
N#CCNC(=O)c1ccc(-c2ccnc(Nc3ccc(N4CCOCC4)cc3)n2)cc1 | rule not met

Task: Decide: Population Apoptotic (%) of `C=CC(=O)Nc1cc(-n2c(=O)ccc3cnc4ccc(-c5ccc(NS(C)(=O)=O)cc5)cc4c32)ccc1C` >= 30%?
Output: rule not met

Task: Decide: Population Apoptotic (%) of `Cl.NC[C@@H]1O[C@H](C23CC4CC(CC(C4)C2)C3)Cc2c1ccc(O)c2O` >= 30%?
Output: rule met

Task: Decide: Population Apoptotic (%) of CC(Cc1ccc(O)c(O)c1)C(C)Cc1ccc(O)c(O)c1 (stereo unspecified) [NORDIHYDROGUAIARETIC ACID] >= 30%?
Output: rule met
